# Target Or Test System: Aurora kinase B (Homo sapiens)
# Sequence (Q96GD4 whole entry): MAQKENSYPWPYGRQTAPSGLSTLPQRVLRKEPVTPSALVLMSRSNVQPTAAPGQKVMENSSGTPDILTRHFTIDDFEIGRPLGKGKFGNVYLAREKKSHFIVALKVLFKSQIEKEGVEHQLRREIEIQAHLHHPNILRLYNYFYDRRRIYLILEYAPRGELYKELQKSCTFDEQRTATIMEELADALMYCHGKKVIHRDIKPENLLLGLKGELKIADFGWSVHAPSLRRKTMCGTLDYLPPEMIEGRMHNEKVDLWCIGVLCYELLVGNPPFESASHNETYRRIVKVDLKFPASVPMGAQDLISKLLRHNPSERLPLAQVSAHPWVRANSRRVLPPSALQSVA
# Measurement Description: Inhibition of recombinant Aur B (unknown origin) after 1 hr by microfluidic assay
The following molecules are shown together with reported IC50 values.
Reply numerically in nM, unit not repeated.

                                 cpd_smiles           target_or_test_system  measured_endpoint  readout_number
0  O=C1Nc2ccccc2/C1=C/c1ccc(N2CCN(C(=O)CCCl)CC2)cc1  Aurora kinase B (Homo sapiens)               IC50             587

Moving on to another molecule below.
Aurora kinase B (Homo sapiens) data for C=CC(=O)N1CCN(c2ccc(/C=C3\C(=O)Nc4ccccc43)cc2)CC1 ; its IC50: 2200

---

# Measurement Description: Antiproliferative activity against human PM8910 cells at 10 uM after 72 hrs by MTS assay
# Type: functional
The following compounds are shown together with reported Activity values.
Reply numerically in %, unit not repeated.

Worked examples, 5 compounds total:
>>> print(df.to_string())
                                 cpd_smiles  measurement_unit  readout_number
0     O=C1Nc2ccc(Cl)cc2/C1=N/c1ccc2ncccc2c1                 %           17.04
1  Nc1nc(N2CCOCC2)ccc1/N=C1\C(=O)Nc2ccc(Cl)cc21                 %           26.03
2  O=C1Nc2ccc(Cl)cc2/C1=N/NC(=O)c1ccc(N2CCOCC2)c([N+](=O)[O-])c1                 %            8.98
3  O=C1Nc2ncccc2/C1=C/c1ccc(N2CCN(C(=O)c3ccccc3)CC2)cc1                 %           13.74
4  O=C1Nc2ccccc2/C1=C/c1ccc(N2CCN(C(=O)CCCl)CC2)cc1                 %           59.46

For O=C1Nc2ncccc2/C1=C/c1ccccc1C(F)(F)F the compound record lists Activity as 29.66

For CCOC(=O)c1ccc(/N=C2\C(=O)Nc3ccc(Cl)cc32)c(Nc2cc(OC)cc(OC)c2)c1 the compound record lists Activity as 42.24

For O=C1Nc2ncccc2/C1=C/c1ncc[nH]1 the compound record lists Activity as 0.71

For Cn1cc(/C=C2/C(=O)Nc3ncccc32)c2ccccc21 the compound record lists Activity as 22.23

For CCn1c2ccccc2c2cc(/N=C3/C(=O)Nc4ccc(Cl)cc43)ccc21 the compound record lists Activity as 24.55

---

# System: A549
# Measurement Description: Antiproliferative activity against human A549 cells at 10 uM after 72 hrs by MTS assay
# Type: functional
So basically, if Activity comes in under 10% it's t, and if it's 10% or more it's f.

Use these answered entries as a reference point.
In [3]: df
Out[3]:
                                 cpd_smiles  answer_label
0  O=CN1CCN(c2ccc(/C=C3\C(=O)Nc4ccccc43)cc2)CC1             f
1   O=C1Nc2ncccc2/C1=C/c1c[nH]c2ccc(Br)cc12             f
2     O=C1Nc2ncccc2/C1=C/c1ccc(N2CCOCC2)cc1             f
3             O=C1Nc2ncccc2/C1=C/c1ncc[nH]1             t
4  CCOC(=O)c1ccc(/N=C2\C(=O)Nc3ccc(Cl)cc32)c(N2CCOCC2)n1             f

Now, please, on to the next compound.
Request: Would you kindly verify if Activity of O=C1Nc2ncccc2/C1=C/c1c[nH]c2ccccc12 is strictly less than 10%?
Response: t

---

The following compounds are shown together with reported pIC50 values.
# Target Or Test System: Mast/stem cell growth factor receptor Kit (Homo sapiens)
# Sequence (P10721 whole entry): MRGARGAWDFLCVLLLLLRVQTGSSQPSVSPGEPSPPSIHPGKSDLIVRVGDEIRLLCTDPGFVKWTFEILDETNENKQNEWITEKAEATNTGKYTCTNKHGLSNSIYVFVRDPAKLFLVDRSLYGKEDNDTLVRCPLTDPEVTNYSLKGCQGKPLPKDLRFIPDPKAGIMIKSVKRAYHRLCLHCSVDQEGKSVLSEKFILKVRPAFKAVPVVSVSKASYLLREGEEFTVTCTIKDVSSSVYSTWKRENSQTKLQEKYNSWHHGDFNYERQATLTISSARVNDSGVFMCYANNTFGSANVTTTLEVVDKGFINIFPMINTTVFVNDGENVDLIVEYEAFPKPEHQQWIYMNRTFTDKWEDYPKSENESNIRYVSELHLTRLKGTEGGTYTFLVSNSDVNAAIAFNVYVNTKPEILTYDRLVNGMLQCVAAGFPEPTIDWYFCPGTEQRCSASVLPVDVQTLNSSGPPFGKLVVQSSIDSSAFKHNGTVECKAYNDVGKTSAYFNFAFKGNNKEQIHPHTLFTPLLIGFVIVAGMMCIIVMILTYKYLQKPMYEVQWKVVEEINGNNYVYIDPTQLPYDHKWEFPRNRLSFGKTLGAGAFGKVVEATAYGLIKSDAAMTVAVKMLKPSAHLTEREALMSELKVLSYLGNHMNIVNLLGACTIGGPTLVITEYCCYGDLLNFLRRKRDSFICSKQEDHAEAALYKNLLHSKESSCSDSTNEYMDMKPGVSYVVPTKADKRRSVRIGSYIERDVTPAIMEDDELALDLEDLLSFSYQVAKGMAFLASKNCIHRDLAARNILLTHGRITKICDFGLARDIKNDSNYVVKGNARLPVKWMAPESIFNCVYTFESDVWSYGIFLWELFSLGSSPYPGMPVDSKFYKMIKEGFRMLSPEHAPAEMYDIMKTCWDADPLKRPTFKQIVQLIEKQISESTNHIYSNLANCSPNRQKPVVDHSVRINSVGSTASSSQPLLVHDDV
# Measurement Description: Inhibition of recombinant c-Kit (unknown origin) after 1 hr by microfluidic assay
Value format note: pIC50 is -log10 of concentration (mol/L); just state the number.

For O=C1Nc2ccccc2/C1=C/c1ccc(N2CCN(C(=O)CCCl)CC2)cc1 the compound record lists pIC50 as 7.15

For C=CC(=O)N1CCN(c2ccc(/C=C3\C(=O)Nc4ccccc43)cc2)CC1 the compound record lists pIC50 as 6.89

---

# Measurement Description: Antiproliferative activity against human SKBR3 cells at 10 uM after 72 hrs by MTS assay
# Type: functional, SK-BR-3
Measured Endpoint: Activity (%)
Reply numerically in %, unit not repeated.

Worked examples, 3 molecules total:
In [3]: df
Out[3]:
                                 cpd_smiles  readout_number
0  C=CC(=O)N1CCN(c2ccc(/C=C3\C(=O)Nc4ccccc43)cc2)CC1           27.99
1   O=C1Nc2ncccc2/C1=C/c1c[nH]c2ccc(Br)cc12           27.26
2   O=C1Nc2ccc(Cl)cc2/C1=N/c1ccc2[nH]ccc2c1           11.83

For O=C1Nc2ncccc2/C1=C/c1ccc(N2CCN(C(=O)c3ccccc3)CC2)cc1 the molecule record lists Activity as 9.07

For COc1cc(OC)c(/C=C2\C(=O)Nc3ncccc32)c(OC)c1 the molecule record lists Activity as 2.1

For O=C1Nc2ccc(Cl)cc2/C1=C/c1c[nH]c2ncccc12 the molecule record lists Activity as 10.07

For Nc1nc(N2CCOCC2)ccc1/N=C1\C(=O)Nc2ccc(Cl)cc21 the molecule record lists Activity as 17.97

For CCOC(=O)c1ccc(/N=C2\C(=O)Nc3ccc(Cl)cc32)c(Nc2cc(OC)cc(OC)c2)c1 the molecule record lists Activity as 41.17

For O=CN1CCN(c2ccc(/C=C3\C(=O)Nc4ncccc43)cc2)CC1 the molecule record lists Activity as 7.8

For O=C1Nc2ccccc2/C1=C/c1ccc(N2CCN(C(=O)c3ccccc3)CC2)cc1 the molecule record lists Activity as 27.26

For C=CC(=O)N1CCN(c2ccc(/C=C3\C(=O)Nc4ncccc43)cc2)CC1 the molecule record lists Activity as 13.65

---

The following compounds are shown together with reported Activity values.
# Measurement Description: Antiproliferative activity against human SKBR3 cells at 10 uM after 72 hrs by MTS assay
# Format: functional, SK-BR-3
Reply numerically in %, unit not repeated.

Worked examples, 5 compounds total:
                                 cpd_smiles  readout_number
0  O=CN1CCN(c2ccc(/C=C3\C(=O)Nc4ccccc43)cc2)CC1            7.42
1       O=C1Nc2ncccc2/C1=C/c1ccccc1C(F)(F)F            5.96
2  O=C1Nc2ccc(Cl)cc2/C1=N/c1ccc2nc(S)[nH]c2c1            8.27
3  Cc1cc2cc(/N=C3\C(=O)Nc4ccc(Cl)cc43)ccc2[nH]1            9.84
4     O=C1Nc2ccc(Cl)cc2/C1=N/c1ccc2ncccc2c1           24.97

Moving on to another compound below.
For O=C1Nc2ncccc2/C1=C/c1ncc[nH]1 the compound record lists Activity as -0.35

---

# Measurement Description: Antiproliferative activity against human PM8910 cells at 10 uM after 72 hrs by MTS assay
# Type: functional
Measured Endpoint: Activity (%)
Reply numerically in %, unit not repeated.

Worked examples, 6 compounds total:
>>> df
                                 cpd_smiles  readout_number
0      O=C1Nc2ccc(Cl)cc2/C1=N/NC(=O)c1ccco1           15.69
1   O=C1Nc2ncccc2/C1=C/c1c[nH]c2ccc(Br)cc12           40.59
2  COc1cc(OC)c(/C=C2\C(=O)Nc3ncccc32)c(OC)c1           41.21
3  CCOC(=O)c1ccc(/N=C2\C(=O)Nc3ccc(Cl)cc32)c(N2CCOCC2)n1           21.97
4  O=C1Nc2ncccc2/C1=C/c1ccc(N2CCN(C(=O)CCCl)CC2)cc1           14.97
5  C=CC(=O)N1CCN(c2ccc(/C=C3\C(=O)Nc4ncccc43)cc2)CC1           19.94

Moving on to another compound below.
For O=C1Nc2ccc(Cl)cc2/C1=N/c1ccc2nc(S)[nH]c2c1 the compound record lists Activity as 10.36

---

# Measurement Description: Antiproliferative activity against human PM8910 cells at 10 uM after 72 hrs by MTS assay
# Type: functional
Binary call on Activity: Satisfied from 10% upward, Not satisfied beneath that.

In [3]: df
Out[3]:
                                 cpd_smiles   answer_label
0     O=C1Nc2ncccc2/C1=C/c1ccc(N2CCOCC2)cc1  Not satisfied
1       O=C1Nc2ncccc2/C1=C/c1c[nH]c2ccccc12  Not satisfied
2  C=CC(=O)N1CCN(c2ccc(/C=C3\C(=O)Nc4ccccc43)cc2)CC1      Satisfied
3   O=C1Nc2ccc(Cl)cc2/C1=N/c1ccc2cc[nH]c2c1      Satisfied
4  O=C1Nc2ccccc2/C1=C/c1ccc(N2CCN(C(=O)c3ccccc3)CC2)cc1      Satisfied

Request: Entry O=C1Nc2ccc(Cl)cc2/C1=C/c1c[nH]c2ncccc12 : is its Activity no less than 10%?
Response: Satisfied
